Entries and their GI50 values follow.
Tested on: SF-539
test: NCI tumour cell line growth inhibition, 48 h
The source made the active and inactive calls. No stated cut-off is given here; in the data, active = GI50 up to about 1.1 µM and inactive = higher.

- compound: "Cc1cc(Cl)nc2nc(Cl)c(N)cc12"
  GI50: "4.71 µM (inactive)"
- compound: "O=C1OCC(O)=C1C(c1ccc(Cl)cc1)c1cc2c(cc1O)OCO2 (stereo not given)"
  GI50: "> 100 µM (inactive)"
- compound: "CCN(CC)Cc1ccc2cccnc2c1O"
  GI50: "6.58 µM (inactive)"
- compound: "COc1cccc2c1C(=O)c1c(O)c3c(c(O)c1C2=O)C[C@@](O)(C(C)=O)C[C@@H]3OC1CC(N(Cc2ccccc2)Cc2ccccc2)C(O)C(C)O1 (stereo not given in full)"
  GI50: "10.9 µM (inactive)"
- compound: "C=CCn1c(N)c(C#N)c(C#N)c1CCC"
  GI50: "> 100 µM (inactive)"
- compound: "CSc1ccc(NC(=O)CCl)cc1"
  GI50: "3.95 µM (inactive)"
- compound: "CN(C)CCNC(=O)c1c(O)ccc2c1c1c(n2CCc2ccccc2)C(=O)c2ccccc2C1=O"
  GI50: "5.37 µM (inactive)"
- compound: "Cn1ccc(C(=O)NCCN(CCNC(=O)c2ccn(C)c(=O)c2O)CCNC(=O)c2cccc(=O)n2O)c(O)c1=O"
  GI50: "> 100 µM (inactive)"
- compound: "O=C(O)c1ccccc1NC(c1ccccc1)c1ccc2cccnc2c1O (stereo not given)"
  GI50: "5.14 µM (inactive)"
- compound: "CN1CCN2CCN(C)CCN(CC1)CC2"
  GI50: "> 100 µM (inactive)"

====

Tested on: Malme-3M
test: NCI tumour cell line growth inhibition, 48 h
The source made the active and inactive calls. Rule as the data show it: active = GI50 up to about 1.1 µM and inactive = higher.
Outcomes: active, inactive

- compound: "CCOc1ccc(/N=C(/NC(=O)c2ccccc2)SC)cc1"
  group-label: "inactive"
- compound: "CCCn1c(C23CC4CC(CC(C4)C2)C3)nc2ccc(Cl)cc2c1=O"
  group-label: "inactive"
- compound: "O=[N+]([O-])c1ccc(/C=N/C2CCCCC2)cc1"
  group-label: "inactive"
- compound: "COc1ccc(/C=C/c2cnccn2)cc1OC"
  group-label: "inactive"
- compound: "Cc1ccc(C(C)C)c(OCC(=O)N/N=C/c2c[nH]c3ccc(Br)cc23)c1"
  group-label: "inactive"
- compound: "O=[N+]([O-])c1cc(C2(N3CCCCC3)CCCCC2)sc1Br"
  group-label: "inactive"
- compound: "CCOc1ccc(N/C(=C(/C(Cl)=C(/Cl)NCCO)[N+](=O)[O-])n2nnc3ccccc32)cc1"
  group-label: "inactive"
- compound: "CC1=C(C#N)C(=O)N(/N=C/c2ccc(Cl)cc2)C(=O)/C1=c1\\o/c(=C2/C(=O)N(/N=C/c3ccc(Cl)cc3)C(=O)C(C#N)=C2C)c2nccnc12"
  group-label: "inactive"
- compound: "O=C1NC2(CCN(CCc3ccccc3)CC2)Oc2ccccc21"
  group-label: "inactive"
- compound: "CCOC(=O)C(CC(C)C)NC(=O)CSc1nnc(COc2ccc(Cl)cc2)n1-c1ccccc1 (configuration not stated)"
  group-label: "inactive"
- compound: "O=c1cccccc1NCCNc1cccccc1=O"
  group-label: "inactive"
- compound: "COc1ccc(NC(=O)CCc2cc(C(C)(C)C)[nH]n2)cc1"
  group-label: "inactive"
- compound: "C[C@]12C=CC(=O)C=C1CC[C@@H]1[C@@H]2C(=O)C[C@@]2(C)[C@H]1CC[C@]2(O)C(=O)CO"
  group-label: "inactive"
- compound: "N/C(=N\\O)NCCN1CCCCCCC1"
  group-label: "inactive"
- compound: "CC(C)C(=O)CC(c1ccc(Cl)cc1)N1N=C(C(C)C)CC1c1ccc(Cl)cc1 (configuration not stated)"
  group-label: "active"
- compound: "C1CCCCC2(CCCCCCCCC3(CCC1)SCCS3)SCCS2"
  group-label: "inactive"
- compound: "CC12CCC(CC(=O)/C1=C(/Br)I)C2(C)C (configuration not stated)"
  group-label: "inactive"

====

System: SNB-19
test: NCI tumour cell line growth inhibition, 48 h
Active and inactive are the calls of the source. No stated cut-off is given here; in the data, active = GI50 up to about 1.1 µM and inactive = higher. Where a SMILES comes first, the peptide text is derived from it. Square brackets hold non-standard residues; d marks the D form. Peptide text beside a SMILES is read from it. [ ]: non-standard residue; d: D form. The star is where a group is joined. * marks the point of attachment. ξ: configuration not given here. NMeF = CN[C@@H](Cc1ccccc1)C(=O)O; NMeV = CN[C@H](C(=O)O)C(C)C; ξNMeN = CNC(CC(N)=O)C(=O)O; NMeA = CN[C@@H](C)C(=O)O; ξNMeV = CNC(C(=O)O)C(C)C; Boc = CC(C)(C)OC(=O)*; OBn = c1ccc(CO*)cc1
Outcomes: True (active), False (inactive)

- molecule: "O=C(CC(=O)Nc1ccc(Cl)cc1)NNCC(=O)Nc1nc(-c2ccccc2)cs1"
  group-label: "False"
- molecule: "COc1cc2cc(C(=O)N3CC(CCl)c4ccccc43)[nH]c2c(OC)c1OC (configuration not stated)"
  group-label: "False"
- molecule: "CC1=C(C#N)C(=O)N(/N=C/c2ccc(Cl)cc2)C(=O)/C1=c1\\o/c(=C2/C(=O)N(/N=C/c3ccc(Cl)cc3)C(=O)C(C#N)=C2C)c2nccnc12"
  group-label: "False"
- molecule: "CSC(=N)NNC(=O)CCC(=O)Nc1ccccc1C(F)(F)F"
  group-label: "False"
- molecule: "Cn1cc(NC(=O)c2cc(NC(=O)CCCCCCCCC(=O)Nc3cc(C(=O)Nc4cc(C(=O)NCCC(N)N)n(C)c4)n(C)c3)cn2C)cc1C(=O)NCCC(=N)N"
  group-label: "False"
- molecule: "COC(=O)[C@H](C)N(C)C(=O)C(CC(N)=O)N(C)C(=O)[C@H](Cc1ccccc1)N(C)C(=O)[C@@H]1CCCN1C(=O)[C@H](C(C)C)N(C)C(=O)C(C(C)C)N(C)C(=O)[C@@H](NC(=O)OC(C)(C)C)C(C)C (some centres not stated) (Boc-V[ξNMeV][NMeV]P[NMeF][ξNMeN][NMeA]-OMe)"
  group-label: "False"
- molecule: "CCOC(=O)C1(C(=O)OCC)CCCN1C(=O)[C@H](CNC(=O)OC(C)(C)C)NC(=O)OCc1ccccc1"
  group-label: "False"
- molecule: "Cc1cc(C)nc(NS(=O)(=O)c2ccc(NC(=O)c3c4ccccc4nc4ccccc34)cc2)n1"
  group-label: "False"
- molecule: "O=c1[nH]c(=O)n([C@@H]2O[C@H](CO)[C@@H](O)[C@H]2O)cc1F"
  group-label: "True"
- molecule: "Cc1ccc(NC(=S)SCCC(=O)O)cc1"
  group-label: "False"
- molecule: "CCCn1c(C23CC4CC(CC(C4)C2)C3)nc2ccc(Cl)cc2c1=O"
  group-label: "False"
- molecule: "C[C@@H](NC(=O)CNC(=O)OC(C)(C)C)C(=O)N[C@@H](Cc1ccccc1)C(=O)OCc1ccccc1 (Boc-Gly-[dA]-Phe-OBn)"
  group-label: "False"
- molecule: "Cc1ccc(C(=O)O)cc1S(=O)(=O)Nn1cnc2ccc(S(=O)(=O)Nc3ccccc3C(=O)O)cc2c1=O"
  group-label: "False"
- molecule: "CCN(CC)CCN(C(=O)c1ccc(F)cc1)c1ccccc1N"
  group-label: "False"
- molecule: "CC(=O)[C@]12OC(=O)C3=C1[C@H](CC[C@@H]3C)[C@@H](C)C[C@H]2C=C(C)C"
  group-label: "False"
- molecule: "Nc1c2ccccc2nc2c1ccc1ncccc12"
  group-label: "False"
- molecule: "CC1CCCc2c(-c3ccc(Cl)cc3)nc(N)c(C#N)c21 (configuration not stated)"
  group-label: "False"
- molecule: "O=CN1CCN(C(=O)c2ccc(Cl)cc2)C1=S"
  group-label: "False"
- molecule: "N/C(=N\\O)NCCN1CCCCCCC1"
  group-label: "False"
- molecule: "Cc1c(O)c(O)cc[n+]1C1OC(CO)C(O)C1O (configuration not stated)"
  group-label: "False"
- molecule: "Clc1ccc(/C=c2\\nc(-c3ccccc3)n3c2nc2ccccc23)cc1"
  group-label: "False"
- molecule: "COC(=O)C(C(=O)C(=O)Nc1nnc(S)[nH]1)c1csc(N)n1 (configuration not stated)"
  group-label: "False"
- molecule: "Cc1ccc(C)n2c1nc1ccc3ccccc3c12"
  group-label: "False"
- molecule: "CCOc1ccc(/N=C(/NC(=O)c2ccccc2)SC)cc1"
  group-label: "False"
- molecule: "N#C/C(=C\\c1ccc2[nH]ccc2c1)C(=O)c1ccc(O)c(O)c1"
  group-label: "False"
- molecule: "O=C(NNc1cn[nH]c(=O)n1)c1cccc2nc3ccccc3nc12"
  group-label: "False"
- molecule: "CC1CNC(c2ccc(-c3nc(-c4ccc(C5=NC(C)CN5)cc4)nc(N(C)C)n3)cc2)=N1 (configuration not stated)"
  group-label: "False"
- molecule: "CC1CCC(O)/C=C/C(=O)OC(C)C(O)/C=C/C(=O)O1 (configuration not stated)"
  group-label: "False"
- molecule: "CCCCC(=O)c1c(O)ccc2c(C)cc(=O)oc12"
  group-label: "False"
- molecule: "CC(C)=CC(=O)c1[nH]c2ccccc2c1CC(=O)NCCc1cncn1C"
  group-label: "False"
- molecule: "CC(C)(CN1CCCCC1)C(=O)CC(SCCS(=O)(=O)O)c1ccc(Cl)cc1 (configuration not stated)"
  group-label: "False"
- molecule: "O=C(NC/C(Cl)=C/Cl)Nc1cccc2c1CCCC2"
  group-label: "False"
